target: Scavenger receptor class B member 1 (Mus musculus) (UniProt Q61009); assay: mouse SR-BI DiI-HDL uptake blockers – ldlA[mSR-BI] cells, fluorescence, single point, primary screen (AID 488896); details: ldlA[mSR-BI] CHO cells, 3 h, at 12.5 µM
Sequence (Q61009 whole entry, looked up): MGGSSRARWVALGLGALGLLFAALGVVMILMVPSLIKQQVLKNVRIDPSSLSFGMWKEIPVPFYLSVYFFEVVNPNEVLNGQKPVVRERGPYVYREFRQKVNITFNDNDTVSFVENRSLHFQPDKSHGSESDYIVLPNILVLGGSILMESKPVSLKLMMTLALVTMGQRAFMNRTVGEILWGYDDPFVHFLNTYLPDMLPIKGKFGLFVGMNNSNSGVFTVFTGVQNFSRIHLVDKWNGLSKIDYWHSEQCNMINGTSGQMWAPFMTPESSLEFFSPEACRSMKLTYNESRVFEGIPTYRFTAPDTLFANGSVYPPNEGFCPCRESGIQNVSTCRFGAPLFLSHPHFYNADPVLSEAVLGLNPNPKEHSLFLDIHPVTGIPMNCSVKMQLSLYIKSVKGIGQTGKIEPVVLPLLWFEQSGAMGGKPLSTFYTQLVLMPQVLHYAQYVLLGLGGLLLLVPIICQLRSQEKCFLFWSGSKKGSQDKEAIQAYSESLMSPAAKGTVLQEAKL
In all, about 320,000 compounds went through this assay and about 3,100 (0.97%) were called active.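 How the source made its calls: active means mean replicate inhibition of at least 70% and a set share of replicates each scoring 70 or more; inconclusive means meets just one of the two criteria; inactive means fails both criteria.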 Many of the other results were omitted from the sample, so actives are more common in it than they were.
Outcomes: T (active), F (inactive)

* O=C(Nc1c[nH]c(=O)[nH]c1=O)OCc1ccccc1 | F
* CCOC(=O)C1(O)CC(C)=NN1C(=O)c1cccc(Br)c1 (configuration not stated) | F
* CC1=NN(C(=O)c2ccccc2Br)C(O)(c2cccnc2)C1 (configuration not stated) | F
* COCCN(C(=O)C(C)N1C(=O)c2ccccc2C1=O)c1c(N)n(CC(C)C)c(=O)[nH]c1=O (configuration not stated) | F
* C/C(=N\NC(=O)c1ccc2ccccc2c1)c1cccnc1 | F
* COc1ccc(CCC(=O)Nc2ccc(Cl)c(S(=O)(=O)N3CCOCC3)c2)cc1OC | F
* Cn1cc(C2OC(=O)c3ccccc32)c2ccccc21 (configuration not stated) | F
* Cn1c(=S)sc2ccc3ccccc3c21 | F
* CC(=O)OCC1(O)CC23CCC4c5ccoc5CCC4(C)C2CCC1C3 (configuration not stated) | F
* CCc1c(Nc2ccccc2Cl)nc(N)[nH]c1=O | F
* CC1=NN(C(=O)c2ccc(Br)cc2)C(O)(c2ccccc2)C1 (configuration not stated) | T
* CCOC(=O)COc1ccc([N+](=O)[O-])cc1 | F
